Listing of entries alongside the reported viability.
Experimental Protocol: reversal of MRP1-mediated doxorubicin resistance, pilot screen, H69AR cells, doxorubicin co-treatment (AID 601)
Condition Label: H69AR cells + 2 uM doxorubicin, CellTiter-Glo, 72 h; measured here: viability with 2 uM doxorubicin; at 10 µM; stronger effect = lower value
Entry rule: numbers only, all in %.

Solved entries (count: 3):
Molecule: Cc1ccccc1Cn1ccc(NC(=O)c2cnn3c(C(F)(F)F)cc(-c4ccco4)nc23)n1
Recorded Metric: viability
Result Number: 35.3
//
Molecule: CCCC(CCC)n1[nH]c(=O)c2c(C)cc(C)nc21
Recorded Metric: viability
Result Number: 103
//
Molecule: CCCOc1cccc(C(=O)N(Cc2ccco2)C2CCS(=O)(=O)C2)c1 (stereo unspecified)
Recorded Metric: viability
Result Number: 89.8

Reported viability ( Cc1ccc(CC2SC(=O)NC2=O)cc1Cl (stereo unspecified) ) = 88.4

Reported viability ( Cc1ccc(S(=O)(=O)N(C)c2ccc(OCC(=O)OCc3c(C)noc3C)cc2)cc1 ) = 98.6

Reported viability ( COc1ccc(/C(O)=C2\C(=O)C(=O)N(c3cc(C)on3)C2c2ccccc2OC)cc1 (stereo unspecified) ) = 85.3

---

Listing of entries alongside the reported viability.
Experimental Protocol: SK-BR-3 cell growth inhibitors, pilot screen, 24 h, human (AID 572);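 further: compound exposure lasted between 18 and 24 h rather than exactly 24 h; 100% = carrier-treated control wells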
Condition Label: SK-BR-3 viability, CellTiter-Glo luminescence, at 10 µM, stronger effect = lower value
Entry rule: numbers only, all in %.

Solved entries (count: 5):
Molecule: O=C1C2ON(c3ccc(Cl)cc3)C(c3ccco3)C2C(=O)N1c1ccccc1 (stereo unspecified)
Recorded Metric: viability
Result Number: 116
//
Molecule: COc1nc(-c2ccc(Cl)cc2)ccc1-c1noc(-c2ccncc2)n1
Recorded Metric: viability
Result Number: 109
//
Molecule: O=C(NCc1ccc2c(c1)OCO2)c1cccc2c1C(=O)N(C1CCCCC1)C2
Recorded Metric: viability
Result Number: 102
//
Molecule: O=C(CN1CCN(c2ccc(F)cc2)CC1)OCc1ccccc1
Recorded Metric: viability
Result Number: 95
//
Molecule: CCCC1c2ccc(C)n2CCN1C(=O)Nc1ccccc1Cl (stereo unspecified)
Recorded Metric: viability
Result Number: 92

Reported viability ( COC(=O)CCC(=O)Nc1ccc(S(=O)(=O)N2CCCCCC2)cc1 ) = 103

---

Listing of entries alongside the reported viability.
Experimental Protocol: growth inhibitors of H69AR lung tumor, primary screen, human, duplicate replicates (AID 580);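 further: 100% = mean luminescence of untreated wells and 0% = no signal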
Condition Label: H69AR lung tumor cells viability, ATP luminescence, 72 h; at 10 µM; stronger effect = lower value
Entry rule: numbers only, all in %.

Solved entries (count: 2):
Compound: COc1cc(OC)cc(-c2nc(N)n[nH]2)c1
Recorded Metric: viability
Result Number: 103
--
Compound: CCOC(=O)N1CCN(C(=O)C(NS(=O)(=O)c2cccc3nsnc23)c2ccccc2)CC1 (stereo not drawn)
Recorded Metric: viability
Result Number: 94.2

Reported viability ( Cc1ccc(-c2nn[nH]n2)cc1 ) = 107

Reported viability ( CCOC(=O)CSc1nc2ccccc2n1CC(=O)N1CCN(c2ccccc2)CC1 ) = 89.9

Reported viability ( COc1ccc(OC)c(CNC(=O)CCN2C(=O)COc3ccccc32)c1 ) = 91.8

Reported viability ( Cc1ccc(CNC(=O)C2CCN(S(=O)(=O)c3cccs3)CC2)o1 ) = 81

Reported viability ( CC(=O)Nc1cccc(NC(=O)CSc2nnnn2C)c1 ) = 106

Reported viability ( Cn1c(=O)c(C(=S)NC(=O)C2CC2)c(N)n(Cc2ccccc2)c1=O ) = 78.1

Reported viability ( Cc1ccccc1NS(=O)(=O)c1cc(C(=O)N2CCCC2)ccc1C ) = 84.2

Reported viability ( CCOC(=O)C1=C(C)N(C)C(C)=C(C(=O)OCC)C1c1cccnc1 ) = 92.4

Reported viability ( COCCCNC(=O)C1CCN(C(=O)Nc2ccc(Cl)cc2)CC1 ) = 99

Reported viability ( O=C(O)C1CC=CCC1C(=O)Nc1cccc(C(=O)N2CCCCC2)c1 (stereo not drawn) ) = 91.9

Reported viability ( COc1nc(OC)nc(N2CCC(NC(=O)C(Cc3ccc(C(C)C)cc3)NC(C)=O)CC2)n1 (stereo not drawn) ) = 64.4

Reported viability ( C[C@]12CCC(=O)C=C1CC[C@@H]1[C@@H]2[C@@H](O)C[C@@]2(C)[C@H]1CC[C@]2(O)C(=O)CO ) = 105

Reported viability ( Cc1ccc(-n2nc3cc(Cl)c(NC(=O)c4ccco4)cc3n2)cc1 ) = 42.7

Reported viability ( Cc1cc(-c2ccccc2)nc(SCc2ccc(C(=O)O)o2)n1 ) = 97.5

Reported viability ( Cc1cc(C(=O)COC(=O)CCc2nc3ccccc3s2)c(C)n1C ) = 101

Reported viability ( CCN(CC)C(=O)C1CCN(CC2CC=CCC2)CC1 (stereo not drawn) ) = 94.8

Reported viability ( CC(O)CN(Cc1cccc(Cl)c1)CC(C)O (stereo not drawn) ) = 99.4
